- protocol.notes: In vitro antibacterial activity against gram-negative organism Pseudomonas aeruginosa 5007
- Format: functional
- reported.conditions: Pseudomonas aeruginosa; read-out: MIC
Attribute: log10 of MIC
Recall that a logarithmic scale is used here: each number is log10 of MIC in µg/mL.

Examples with answers:
Cc1c(N2CCC(N)C2)c(F)cn2c(=O)c(/C(O)=C/[N+](=O)[O-])cc(C3CC3)c12 (centres undefined) | -0.41
Cc1c(N2CC[C@@H]3CNC[C@@H]32)c(F)cn2c(=O)c(C(=O)O)cc(C3CC3)c12 | -0.41
Cc1c(N2C[C@@H]3CCN[C@@H]3C2)c(F)cn2c(=O)c(C(=O)O)cc(C3CC3)c12 (stereo in doubt; 45o) | -0.41
CNC1CCN(c2c(F)cn3c(=O)c(C(=O)O)cc(C4CC4)c3c2C)C1 (centres undefined) | -0.70
CO[C@@H]1CN(c2c(F)cn3c(=O)c(C(=O)O)cc(C4CC4)c3c2C)C[C@H]1N | 0.19
Cc1c(F)c(N2CCC(N)C2)cc2c(C3CC3)cc(C(=O)O)c(=O)n12 (centres undefined) | 0.19
Cc1ccc(S(=O)(=O)O)cc1.NC1CCN(c2nc3c(cc2F)c(=O)c(C(=O)O)cn3-c2ccc(F)cc2F)C1 (centres undefined) [TOSUFLOXACIN TOSYLATE] | -0.41
Cc1c(N2C[C@@H](N)C[C@H]2C)c(F)cn2c(=O)c(C(=O)O)cc(C3CC3)c12 | -0.11

// next item, log10 of MIC requested
# molecule Cc1c(N2CC[C@H](N)C2)c(F)cn2c(=O)c(C(=O)O)cc(C3CC3)c12 [ABT-719] ; its log10 of MIC = -1.30
